target: CsMYBF1 (Citrus, UniProt A0A125SL50 1-337); assay: EMSA; 0.1% Nonidet P-40, 1 mM benzamidine, 0.5 mM PMSF, 0.5 mM DTT, 50 ug/mL BSA, 100 ng/uL poly(dI-dC), 5 uM Cy3 probe, 1 ug protein in 20 uL, 4 C 2 h; 6% PAGE in 0.5x TBE at 4 C; salt and pH not stated; conditions: protein: recombinant; tags: His (pET28a); label: Cy3
Sequence (A0A125SL50 entry or part of it): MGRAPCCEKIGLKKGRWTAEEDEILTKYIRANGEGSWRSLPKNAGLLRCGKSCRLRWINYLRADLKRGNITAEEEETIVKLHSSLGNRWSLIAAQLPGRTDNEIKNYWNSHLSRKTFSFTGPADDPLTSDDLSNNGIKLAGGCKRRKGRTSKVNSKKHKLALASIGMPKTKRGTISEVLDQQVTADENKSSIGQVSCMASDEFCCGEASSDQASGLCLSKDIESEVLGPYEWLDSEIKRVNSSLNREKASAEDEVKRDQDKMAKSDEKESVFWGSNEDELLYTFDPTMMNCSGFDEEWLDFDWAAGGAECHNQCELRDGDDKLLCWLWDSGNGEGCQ
measurementLabel: binding result

Cs4CL promoter probe WT (dsDNA) DNA 1: TTAACTGCACCTACCACACCCA DNA 2: TGGGTGTGGTAGGTGCAGTTAA: binds
CsCHS promoter probe WT (dsDNA) DNA 1: TTGATTTAACCTACCCCCATTG DNA 2: CAATGGGGGTAGGTTAAATCAA: binds

Reference source for all entries: paper PMC4861916
